test: yeast display, Sf9 membrane polyspecificity reagent, FACS + sequencing; frameworks hold sequencing errors
property label: polyreactivity (PSR sort gate)

1. QVQLVESGGGLVQAGGSLRLSCGASGRTFPVYAMGWYRQAPGKERELVADISDGGSTNYADSVKGRFTISRDNAKNTVDLQMNSLKPEDTAVYYCNATTFAFSPSLKGAYGYWGQGTQVTVST : low polyreactivity
2. QVQLVESGGGLVQAGGSLRLSCAASGRIFYGNTLGWYRQAPGKERELVAAISSGGSTNYADSVKGRFTISRDNAKNTVYLQMNSLKPEDTAVYYCAAAGRPGGYVQRDSWGQGTQVTVSS : high polyreactivity
3. QVQLVESGGGLVQAGGSLRLTCAASGSTSEVYAMGWYRQAPGKEREFVAAISRSGGTTYYADSVKGRFTISRDNAKNTVYLQMKSVKPEDTAVYYCNARGYSGVSGKYGYWGQGTQVTVSS : high polyreactivity
4. QVQLVESGGGLVQAGGSLRLSCAASGLIFASYAMGWYRQAPGKERELVATITVGGSTYYADSVKGRFTISRDNPKNTVYLQMISLKPEDTAVYYCNVGESVPWYEWGALWFSFDYWGQGTQVSVSS : high polyreactivity

Next item in the queue.
Write down polyreactivity (PSR sort gate) measured for item `QVQLVESGGGLVQAGGSLLLSCAASGRTFNVYAMGRYRQAPGKERELVAAINRGGRTNYADSVKGRYTISRDNAKNTVYLQMNSLKPEDTAVYYCAALRVYVNWHKIGYDYWGQGTQVTVSS`
low polyreactivity

---

assay: yeast display, Sf9 membrane polyspecificity reagent, FACS + sequencing; frameworks hold sequencing errors
property label: polyreactivity (PSR sort gate)

1) QVQLVESGGGLVQAGGSLRLSCAASGRTFPVNVMGWYRQAPGKERELVAAITWSGDSTYYADSVKGRFTISRDNAKNTVYLQMNSVKPEDTAVYYCATDYSGLRYDYWGQGTQVTVSS : low polyreactivity
2) QVQLVESGGGLVHAGGSLRLSCAASGSIFTWNGMGWYRQAPGKERELVAGMSYSGGITYTDSVKGRFTISRDNAKNTVYLQMNSLKPEDTAVYYCNARSKVAYYRHYYWGQGTQVTVSS : low polyreactivity

---

test: yeast display, Sf9 membrane polyspecificity reagent, FACS + sequencing; frameworks hold sequencing errors
property label: polyreactivity (PSR sort gate)

1) QVQLVESGGGLVQAGGSLRLSCAASGSIFQLNAMGWYRQAPGKERELDAAITSGGSTYYADSVKGRFTISRDNAKNTVYLQMNSLKPEDTAVYYCAAYYLYTTPTSEWLSGYDYWGQGTQVTVSS : low polyreactivity
2) QVQLVESGGGLVQAGGSLRLSCAASGSIFVWNAMGWYRPAPGKERELVAAISYTDGSTYYADSVKGRFTISRDNAKNTVYLQMNSLKPVDTAVYYCAAAITPSYTGSEYDYWGQGTQVTVSS : low polyreactivity

---

assay: yeast display, Sf9 membrane polyspecificity reagent, FACS + sequencing; frameworks hold sequencing errors
property label: polyreactivity (PSR sort gate)

// known answers, use as guide
1. QVQLVESGGGLVQAGGSLRLSCAASGIIFNSYSMGLYRHAPGKERELVAAITYSGTRTYYADSVKGRFTISRDNAKNTVYLQMNCLKPEDTAVYYCNAVTGRGRTITQYDSWGQGTQVTVSS : high polyreactivity
2. QVQLVETGGGLVQAGGSLRLSCAASGITFVKYAMGWYRQAPGKERELVAAISGSGGSTSYADSVKGRFTISRDNAKNTVYLQMNSLKPEDTAVYYCNKAIVRYPKTRDYWGQGTQVTVSS : low polyreactivity
3. QDQLVESGGGLVQAGGSLRLSCAASGITFSSNAMGGYRQAPGKERELVAAISRNGDRTYYADSVKGRFTISRDNAKNTVYLQMNSLKPEVTAVYYCATAYPGSRRDYWGQGTQVTVSS : high polyreactivity
4. QVQLVESGGGLVQAGGSLRLSCAASGLTFSGYSMGWYRQAPGKERELVAAITSGGNTYYADSVNGRFTISRDNAKNTVYLQMNSLKPEDTAVYYCNVADWRRWGYDYWGQGTQVTVSS : low polyreactivity

Turning now to a further sequence:
# return recorded polyreactivity (PSR sort gate) for entry `QVQLVESGGGLVQAGGSLRLSCAASGRTFAGYVMGWYRQAPGKERELVAAISTSGGSTRYADSVKGRFTISRDNAKNTVYLQMNSLKPEDTAVYYCAKLLYLGRWRFPAGYNHWGQGTQVTVSS`
high polyreactivity
